Biological target: T1, Human hepcidin peptide (hepcidin-25) (human)
T1 construct: Synthetic 25 aa peptide; also called hep-25; Hep-25
T1 peptide: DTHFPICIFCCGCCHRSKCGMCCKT
Assay: titration affinity ELISA, hepcidin 100 ng/well on Nunc Immobilizer Amino plate, CHO supernatant; antibody 3.13 ng/ml
Protocol: FIGS. 17A-C. Titration affinity ELISA of humanized hits. FIG. 17A: Assay layout. […] Concentration of IgG in the supernatant was determined using BioAtla's quantitation ELISA. […] Bound antibodies were detected with anti-human IgG conjugated with HRP (1:2500). The reactions were stopped with 1 N HCl at 1.5 minutes after TMB was added to the wells and read immediately. […] FIG. 17B: OD 450 nm value of the reactions measured with Molecular Device SPECTRAMAX® Plus. […]
recorded_metric: OD 450 nm (OD450)
Please give a number only; it is taken to be in OD450.

Form field OD 450 nm, entry BAP070-hum05 (antibody, IgG1, V domains shown, Expressed as soluble IgG1 in CHO cells, tested as supernatant; The entries stop inside FR4) VH: EVQLVQSGAEVKKPGESLRISCKGSGYTFTNYGMNWIRQPPGKGLEWIGWINTYTGEPTYADDFKGRVTISADKSISTAYLQWSSLKASDTAMYYCTTYATSWYWGQG VL: DIQMTQSPSSLSASVGDRVTITCRASESVDSYGNSFMHWYQQKPGQAPRLLIYRASNLESGVPSRFSGSGSGTDFTFTISSLQPEDIATYYCQQSNEDLTFG : 0.949
